Data origin, for the record: ChEMBL document CHEMBL5331096

molecular target: Cholinesterase (Homo sapiens); test: Time dependent inhibition of human BChE using butyrylthiocholine iodide as substrate preincubated for 30 mins followed by substrate addition and measured for 2 mins by spectrophotometry based Ellman's method; conditions: time 32.0 min
Sequence (P06276 whole entry): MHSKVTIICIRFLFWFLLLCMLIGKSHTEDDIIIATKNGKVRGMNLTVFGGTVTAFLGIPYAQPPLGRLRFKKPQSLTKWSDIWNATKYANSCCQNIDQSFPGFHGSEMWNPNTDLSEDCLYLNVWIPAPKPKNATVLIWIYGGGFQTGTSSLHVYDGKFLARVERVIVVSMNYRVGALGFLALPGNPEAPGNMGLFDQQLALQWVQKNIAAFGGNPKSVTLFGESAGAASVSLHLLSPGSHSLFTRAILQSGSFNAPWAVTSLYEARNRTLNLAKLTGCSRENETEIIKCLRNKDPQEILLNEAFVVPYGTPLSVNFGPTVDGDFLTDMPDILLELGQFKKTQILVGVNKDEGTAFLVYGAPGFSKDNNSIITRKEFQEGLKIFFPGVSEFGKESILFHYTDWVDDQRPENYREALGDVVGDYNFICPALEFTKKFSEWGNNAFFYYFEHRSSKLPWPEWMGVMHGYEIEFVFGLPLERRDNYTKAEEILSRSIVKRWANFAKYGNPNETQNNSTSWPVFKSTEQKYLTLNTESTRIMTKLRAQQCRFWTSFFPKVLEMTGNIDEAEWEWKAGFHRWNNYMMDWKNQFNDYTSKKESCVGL
Calls of active or inactive are those of the source. The rule behind the calls is not given here.
Pick one and only one: Yes = active, No = inactive

Example cases with answers are listed next.
                           smiles_data  cat
0       O=C(Oc1cccc2cc[nH]c12)N1CCOCC1   No
1  CC(C)N(C(=O)Oc1cccc2cc[nH]c12)C(C)C   No
2          CN(C)C(=O)Oc1cccc2cc[nH]c12  Yes

# input for lookup
[in] // return assay outcome for CCN(C)C(=O)Oc1cccc2cc[nH]c12
[out] Yes
